System: Plasmodium falciparum
protocol-description: Inhibition of Plasmodium falciparum protein farnesyltransferase at 50 nM by scintillation proximity assay
test-readout: inhibition (%)

molecule | unit-abbreviation | value-reported
Cn1cnc(S(=O)(=O)N(CC(=O)NC(C)(C)C)C2Cc3cc(C(=O)NCc4ccccc4)ccc3N(Cc3cncn3C)C2)c1 (stereo not drawn) | % | 59
Cn1cncc1CN1CC(N(Cc2cccnc2)S(=O)(=O)c2ccccn2)Cc2cc(C#N)ccc21 (stereo not drawn) | % | 95
C=C(Br)CN(C1Cc2cc(-c3ccccc3)ccc2N(Cc2cncn2C)C1)S(=O)(=O)c1cn(C)cn1 (stereo not drawn) | % | 97
Cn1cncc1CN1CC(N(CCCNC(=O)OC(C)(C)C)S(=O)(=O)c2ccccn2)Cc2cc(C#N)ccc21 (stereo not drawn) | % | 97
Cn1cncc1CN1CC(N(Cc2cc3nsnc3cc2Cl)S(=O)(=O)c2ccccn2)Cc2cc(C#N)ccc21 (stereo not drawn) | % | 53
C=C(C)C(=O)N1CCC(CN(C2Cc3cc(C#N)ccc3N(Cc3cncn3C)C2)S(=O)(=O)c2ccccn2)CC1 (stereo not drawn) | % | 100
Cn1cncc1CN1CC(N(Cc2ccccc2C(F)(F)F)S(=O)(=O)c2ccccn2)Cc2cc(C#N)ccc21 (stereo not drawn) | % | 91
Cn1cnc(CN2CC(N(CCS(C)(=O)=O)S(=O)(=O)c3cn(C)cn3)Cc3cc(-c4ccccc4)ccc32)c1 (stereo not drawn) | % | 99
COC(=O)N(C)CCCCN(C1Cc2cc(C#N)ccc2N(Cc2cncn2C)C1)S(=O)(=O)c1ccccn1 (stereo not drawn) | % | 90
COC(=O)N1CCC(CN(C2Cc3cc(C#N)ccc3N(Cc3cncn3C)C2)S(=O)(=O)c2cccc3cccnc23)CC1 (stereo not drawn) | % | 95
Cn1cncc1CN1CC(N(CCCCN2C(=O)c3ccccc3C2=O)S(=O)(=O)c2ccccn2)Cc2cc(C#N)ccc21 (stereo not drawn) | % | 92
Cn1cncc1CN1CC(N(CCCCCC(N)=O)S(=O)(=O)c2ccccn2)Cc2cc(C#N)ccc21 (stereo not drawn) | % | 81
Cn1cncc1CN1CC(N(CC2CCN(C(=O)C3CC3)CC2)S(=O)(=O)c2ccccn2)Cc2cc(C#N)ccc21 (stereo not drawn) | % | 100
Cn1cncc1CN1CC(N(Cc2ccc(S(C)(=O)=O)cc2)S(=O)(=O)c2ccccc2)Cc2cc(C#N)ccc21 (stereo not drawn) | % | 99
Cn1cnc(S(=O)(=O)N(Cc2ccc(F)cc2)C2Cc3cc(C#N)ccc3N(Cc3cncn3C)C2)c1 (stereo not drawn) | % | 99
CCOc1ccccc1CN(C1Cc2cc(C#N)ccc2N(Cc2cncn2C)C1)S(=O)(=O)c1cn(C)cn1 (stereo not drawn) | % | 11
CC(=O)Nc1ccc(S(=O)(=O)N(Cc2ccccc2F)C2Cc3cc(C#N)ccc3N(Cc3cncn3C)C2)cc1 (stereo not drawn) | % | 25
Cn1cncc1CN1CC(N(Cc2ocnc2-c2ccccc2)S(=O)(=O)c2ccccn2)Cc2cc(C#N)ccc21 (stereo not drawn) | % | 98
Cn1cnc(S(=O)(=O)N(Cc2ccc(S(=O)(=O)c3ccccc3)cc2)C2Cc3cc(C#N)ccc3N(Cc3cncn3C)C2)c1 (stereo not drawn) | % | 99
Cn1cncc1CN1CC(N(CC(=O)NC(C)(C)C)S(=O)(=O)c2nccn2C)Cc2cc(C#N)ccc21 (stereo not drawn) | % | 80
Cn1cncc1CN1CC(N(Cc2ccc(S(C)(=O)=O)cc2)S(=O)(=O)c2cncn2C)Cc2cc(C#N)ccc21 (stereo not drawn) | % | 100
Cn1cnc(S(=O)(=O)N(CC(=O)O)C2Cc3cc(C#N)ccc3N(Cc3cncn3C)C2)c1 (stereo not drawn) | % | 97
CN(C)C(=O)N1CCC(CN(C2Cc3cc(C#N)ccc3N(Cc3cncn3C)C2)S(=O)(=O)c2ccccn2)CC1 (stereo not drawn) | % | 100
COCCCCCN(C1Cc2cc(C#N)ccc2N(Cc2cncn2C)C1)S(=O)(=O)c1ccccn1 (stereo not drawn) | % | 96
Cn1cnc(S(=O)(=O)N(CCc2ccc(F)cc2)C2Cc3cc(C#N)ccc3N(Cc3cncn3C)C2)c1 (stereo not drawn) | % | 100
CCN(CCCCN(C1Cc2cc(C#N)ccc2N(Cc2cncn2C)C1)S(=O)(=O)c1ccccn1)C(=O)OC(C)(C)C (stereo not drawn) | % | 92
COC(=O)c1ccsc1S(=O)(=O)N(CC1CCN(C(=O)OC)CC1)C1Cc2cc(C#N)ccc2N(Cc2cncn2C)C1 (stereo not drawn) | % | 92
CCNC(=O)N1CCC(CN(C2Cc3cc(C#N)ccc3N(Cc3cncn3C)C2)S(=O)(=O)c2ccccn2)CC1 (stereo not drawn) | % | 98
CCCS(=O)(=O)N(Cc1ccccc1F)C1Cc2cc(C#N)ccc2N(Cc2cncn2C)C1 (stereo not drawn) | % | 41
Cn1cnc(S(=O)(=O)N(Cc2ccccc2)C2Cc3cc(C#N)ccc3N(Cc3cnc[nH]3)C2)c1 (stereo not drawn) | % | 93
Cn1cc(S(=O)(=O)N(Cc2ccc(S(C)(=O)=O)cc2)C2Cc3cc(C#N)ccc3N(Cc3cncn3C)C2)cn1 (stereo not drawn) | % | 97
Cn1cnc(S(=O)(=O)N(CCN2CCCCC2)C2Cc3cc(C#N)ccc3N(Cc3cncn3C)C2)c1 (stereo not drawn) | % | 93
COC(=O)N1CCC(CN(C2Cc3cc(C#N)ccc3N(Cc3cncn3C)C2)S(=O)(=O)c2cc(C)cs2)CC1 (stereo not drawn) | % | 99

====

target: Protein farnesyltransferase (Rattus norvegicus)
protocol-description: Inhibition of protein farnesyltransferase
pIC50: −log10 of the molar value.
Entries and their pIC50
test-readout: pIC50

compound | target | test-readout | value-reported
Cn1cncc1CN1CC(N(CC(=O)NC(C)(C)C)S(=O)(=O)c2nccn2C)Cc2cc(C#N)ccc21 (centres undefined) | Protein farnesyltransferase (Rattus norvegicus) | pIC50 | 8.30
Cc1onc(-c2ccccc2)c1CN(C1Cc2cc(C#N)ccc2N(Cc2cncn2C)C1)S(=O)(=O)c1ccccn1 (centres undefined) | Protein farnesyltransferase (Rattus norvegicus) | pIC50 | 8.52
Cn1cnc(S(=O)(=O)N(CC2CCNCC2)C2Cc3cc(C#N)ccc3N(Cc3cncn3C)C2)c1 (centres undefined) | Protein farnesyltransferase (Rattus norvegicus) | pIC50 | 6.98
Cn1cncc1CN1CC(N(CCn2cccc2)S(=O)(=O)c2ccccn2)Cc2cc(C#N)ccc21 (centres undefined) | Protein farnesyltransferase (Rattus norvegicus) | pIC50 | 8.77
Cn1cncc1CN1CC(N(Cc2ccccn2)S(=O)(=O)c2ccccn2)Cc2cc(C#N)ccc21 (centres undefined) | Protein farnesyltransferase (Rattus norvegicus) | pIC50 | 8.42
CCOC(=O)N1CCC(CN(C2Cc3cc(C#N)ccc3N(Cc3cncn3C)C2)S(=O)(=O)c2ccccn2)CC1 (centres undefined) | Protein farnesyltransferase (Rattus norvegicus) | pIC50 | 8.26
Cn1cncc1CN1CC(N(Cc2ccc3ccccc3c2Br)S(=O)(=O)c2ccccn2)Cc2cc(C#N)ccc21 (centres undefined) | Protein farnesyltransferase (Rattus norvegicus) | pIC50 | 6.36
CC(C)COC(=O)N1CCC(CN(C2Cc3cc(C#N)ccc3N(Cc3cncn3C)C2)S(=O)(=O)c2ccccn2)CC1 (centres undefined) | Protein farnesyltransferase (Rattus norvegicus) | pIC50 | 7.60
CCCC(=O)N1CCC(CN(C2Cc3cc(C#N)ccc3N(Cc3cncn3C)C2)S(=O)(=O)c2ccccn2)CC1 (centres undefined) | Protein farnesyltransferase (Rattus norvegicus) | pIC50 | 8.19
Cn1cnc(S(=O)(=O)N(Cc2ccc(-n3cccn3)cc2)C2Cc3cc(C#N)ccc3N(Cc3cncn3C)C2)c1 (centres undefined) | Protein farnesyltransferase (Rattus norvegicus) | pIC50 | 8.59
COCCCN(C1Cc2cc(C#N)ccc2N(Cc2cncn2C)C1)S(=O)(=O)c1cn(C)cn1 (centres undefined) | Protein farnesyltransferase (Rattus norvegicus) | pIC50 | 8.12
Cn1cnc(S(=O)(=O)N(Cc2ccc(C(=O)O)cc2)C2Cc3cc(C#N)ccc3N(Cc3cncn3C)C2)c1 (centres undefined) | Protein farnesyltransferase (Rattus norvegicus) | pIC50 | 8.32
Cn1cncc1CN1CC(N(CC2CCN(C(=O)c3ccccc3)CC2)S(=O)(=O)c2ccccn2)Cc2cc(C#N)ccc21 (centres undefined) | Protein farnesyltransferase (Rattus norvegicus) | pIC50 | 7.80
Cn1cncc1CN1CC(N(Cc2cc3nsnc3cc2Cl)S(=O)(=O)c2ccccn2)Cc2cc(C#N)ccc21 (centres undefined) | Protein farnesyltransferase (Rattus norvegicus) | pIC50 | 8.00

====

System: Plasmodium falciparum
protocol-description: Inhibition of Plasmodium falciparum protein farnesyltransferase at 0.5 nM by scintillation proximity assay
test-readout: inhibition (%)

compound | unit-abbreviation | value-reported
Cn1cncc1CN1CC(N(Cc2ccc(S(C)(=O)=O)cc2)S(=O)(=O)c2ccccn2)Cc2cc(C#N)ccc21 (stereo not drawn) | % | 49
Cn1cnc(CN2CC(N(CC(=O)NC(C)(C)C)S(=O)(=O)c3cn(C)cn3)Cc3cc(-c4ccccc4)ccc32)c1 (stereo not drawn) | % | 23
Cn1cncc1CN1CC(N(Cc2ccccc2F)S(=O)(=O)c2ccccc2)Cc2cc(C#N)ccc21 (stereo not drawn) | % | 10
Cn1cnc(S(=O)(=O)N(CCNC(=O)OC(C)(C)C)C2Cc3cc(C#N)ccc3N(Cc3cncn3C)C2)c1 (stereo not drawn) | % | 28
Cn1cncc1CN1CC(N(CC2CCN(C(=O)OCc3ccccc3)CC2)S(=O)(=O)c2ccccn2)Cc2cc(C#N)ccc21 (stereo not drawn) | % | 66
Cn1cncc1CN1CC(N(CCCN)S(=O)(=O)c2ccccn2)Cc2cc(C#N)ccc21 (stereo not drawn) | % | 0
Cn1cnc(S(=O)(=O)N(Cc2cccc3nsnc23)C2Cc3cc(C#N)ccc3N(Cc3cncn3C)C2)c1 (stereo not drawn) | % | 18
Cn1cc(S(=O)(=O)N(Cc2ccccc2F)C2Cc3cc(C#N)ccc3N(Cc3cncn3C)C2)cn1 (stereo not drawn) | % | 23
Cn1cncc1CN1CC(N(CC(=O)NC(C)(C)C)S(=O)(=O)CCN2C(=O)c3ccccc3C2=O)Cc2cc(C#N)ccc21 (stereo not drawn) | % | 14
COC(=O)N1CCC(CN(C2Cc3cc(C#N)ccc3N(Cc3cncn3C)C2)S(=O)(=O)c2ncn(C)c2C)CC1 (stereo not drawn) | % | 49
CNC(=O)c1ccc2c(c1)CC(N(CC(=O)NC(C)(C)C)S(=O)(=O)c1cn(C)cn1)CN2Cc1cncn1C (stereo not drawn) | % | 12
CN(C1Cc2cc(-c3ccccc3)ccc2N(Cc2cn(C)cn2)C1)S(=O)(=O)c1cn(C)cn1 (stereo not drawn) | % | 10
CCS(=O)(=O)N(Cc1ccccc1F)C1Cc2cc(C#N)ccc2N(Cc2cncn2C)C1 (stereo not drawn) | % | 0
Cn1cncc1CN1CC(N(CCCCCC(N)=O)S(=O)(=O)c2ccccn2)Cc2cc(C#N)ccc21 (stereo not drawn) | % | 4
Cn1cncc1CN1CC(N(CCN2C(=O)c3ccccc3C2=O)S(=O)(=O)c2ccccn2)Cc2cc(C#N)ccc21 (stereo not drawn) | % | 46
CC(C)OC(=O)N1CCC(CN(C2Cc3cc(C#N)ccc3N(Cc3cncn3C)C2)S(=O)(=O)c2ccccn2)CC1 (stereo not drawn) | % | 90
CCN(C1Cc2cc(-c3ccccc3)ccc2N(Cc2cncn2C)C1)S(=O)(=O)c1cn(C)cn1 (stereo not drawn) | % | 10
COc1ccc(S(=O)(=O)N(Cc2ccc(S(C)(=O)=O)cc2)C2Cc3cc(C#N)ccc3N(Cc3cncn3C)C2)cc1 (stereo not drawn) | % | 17
Cn1cncc1CN1CC(N(CC2CCN(C(=O)C3CC3)CC2)S(=O)(=O)c2ccccn2)Cc2cc(C#N)ccc21 (stereo not drawn) | % | 94
COC(=O)N1CCC(CN(C2Cc3cc(C#N)ccc3N(Cc3cncn3C)C2)S(=O)(=O)c2cnn(C)c2)CC1 (stereo not drawn) | % | 39
Cn1cncc1CN1CC(N(CC2CCN(C(=O)c3ccco3)CC2)S(=O)(=O)c2ccccn2)Cc2cc(C#N)ccc21 (stereo not drawn) | % | 92
COC(=O)N1CCC(CN(C2Cc3cc(C#N)ccc3N(Cc3cncn3C)C2)S(=O)(=O)C2CC2)CC1 (stereo not drawn) | % | 0
Cn1cncc1CN1CC(N(CC2CCN(C(=O)CC(F)(F)F)CC2)S(=O)(=O)c2ccccn2)Cc2cc(C#N)ccc21 (stereo not drawn) | % | 77
Cc1noc(C)c1CN(C1Cc2cc(C#N)ccc2N(Cc2cncn2C)C1)S(=O)(=O)c1ccccn1 (stereo not drawn) | % | 17
Cn1cncc1CN1CC(N(CCNC(=O)OC(C)(C)C)S(=O)(=O)c2ccccn2)Cc2cc(C#N)ccc21 (stereo not drawn) | % | 9
Cn1cnc(S(=O)(=O)N(CC(=O)OC(C)(C)C)C2Cc3cc(C#N)ccc3N(Cc3cncn3Cc3ccccc3)C2)c1 (stereo not drawn) | % | 22
Cn1cnc(S(=O)(=O)N(Cc2ncoc2-c2ccccc2)C2Cc3cc(C#N)ccc3N(Cc3cncn3C)C2)c1 (stereo not drawn) | % | 0
Cn1cncc1CN1CC(N(Cc2ccccc2F)S(=O)(=O)c2ccccn2)Cc2cc(C#N)ccc21 (stereo not drawn) | % | 19
COC(=O)N1CCC(CN(C2Cc3cc(C#N)ccc3N(Cc3cncn3C)C2)S(=O)(=O)c2nccn2C)CC1 (stereo not drawn) | % | 15
Cn1cnc(S(=O)(=O)N(Cc2ccc3c(c2)OCCS3(=O)=O)C2Cc3cc(C#N)ccc3N(Cc3cncn3C)C2)c1 (stereo not drawn) | % | 66
COC(=O)c1ccc(CN(C2Cc3cc(C#N)ccc3N(Cc3cncn3C)C2)S(=O)(=O)c2cn(C)cn2)cc1 (stereo not drawn) | % | 1
COC(=O)N1CCC(CN(C2Cc3cc(C#N)ccc3N(Cc3cncn3C)C2)S(=O)(=O)c2sccc2C)CC1 (stereo not drawn) | % | 18
Cn1cncc1CN1CC(N(CC2CCN(C(=O)N3CCCC3)CC2)S(=O)(=O)c2ccccn2)Cc2cc(C#N)ccc21 (stereo not drawn) | % | 91
